# assay.info: CellTiter-Glo viability, NCI-H226
# Type: cell-based
# condition.label: human, NCI-H226 cells; NCI-H226, 600 nM; read-out: cell viability by CellTiter-Glo
quantity: viability at 0.6 µM

Request: Quick one: viability at 0.6 µM of "O=C1NC(=O)C(c2cnc3ccccn23)=C1c1cn2c3c(cc(F)cc13)CN(C(=O)N1CCCCC1)CC2" ?
Response: ~100%

* * *

# assay.info: CellTiter-Glo viability, COLO-205
# Type: cell-based
# condition.label: human, COLO-205 cells; COLO-205, 600 nM; read-out: cell viability by CellTiter-Glo
# Protocol: Viability was determined at the maximum drug concentration measured in a given experiment via CellTiter-Glo® (CTG) per manufacturers recommendations: https://www.promega.com/-/media/files/resources/protocols/technical-bulletins/0/celltiter-glo-luminescent-cell-viability-assay-protocol.pdf?la=en.
quantity: viability at 0.6 µM

Request: Query (molecule): "O=C1NC(=O)C(c2cnc3ccccn23)=C1c1cn2c3c(cc(F)cc13)CN(C(=O)N1CCCCC1)CC2" ; field requested: viability at 0.6 µM
Response: ~100%
